Field: interaction score. Provide a value for each of the binders that follow.
Study system: T1, 4H264-bA
T1 chain: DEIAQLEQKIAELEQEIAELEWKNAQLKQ
Assay info: two-hybrid library CCNG1;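 also: natural log of median RNA to DNA barcode read ratio; higher means stronger binding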
Answers are plain numbers.

Worked examples, 3 binders total:
Binder: DKIAQLKQEIAELEQENAELKWEIAQLEQ [4H2585-bA]
Measurement name: interaction score
Assay result: -1.54

Binder: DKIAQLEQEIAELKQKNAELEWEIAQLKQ [4H2162-bA]
Measurement name: interaction score
Assay result: -1.08

Binder: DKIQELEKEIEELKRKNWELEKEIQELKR [4H2162-bH]
Measurement name: interaction score
Assay result: 0.1

Continue with the binder presented below.
Input: Tell me the measured interaction score of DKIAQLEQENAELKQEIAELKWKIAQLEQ [4H2253-bA] , please.
Output: -0.996
